Values from ChEMBL document CHEMBL1201862

system: M19-MEL; assay: NCI tumour cell line growth inhibition, 48 h
Activity calls are given as the source filed them. Rule as the data show it: active = GI50 up to about 1.1 µM and inactive = higher.
Listed here: items and their measured GI50.
measurementType: GI50

1) CC1=C(C)CC2(CCCCC2=O)[S+]([O-])C1 (stereo unspecified) ... > 100 µM (inactive)
2) CN(C)CCCn1cnc2ncccc2c1=O ... > 100 µM (inactive)
3) CCCCCCCCCCCC[C@@H](O)[C@H]1CC[C@H]([C@H](O)CCCC[C@H](O)CCCCC[C@@H](O)CC2=C[C@H](C)OC2=O)O1 ... 1.69 µM (inactive)
4) COc1ccc(/C=C2\N=C(c3ccccc3)OC2=O)c(OCc2ccccc2)c1 ... 38.3 µM (inactive)
5) CN(Cc1ccccc1)C(=NC#N)N(C)Cc1ccccc1 ... > 100 µM (inactive)
6) Cc1cc2c(cc1C)[n+]([O-])c(C(=O)C/C(=N/NC(=O)c1ccccc1O)C(=O)Nc1ccccc1C(C)C)c(C)[n+]2[O-] ... > 100 µM (inactive)
7) COc1cc([C@@H]2c3cc4c(cc3[C@@H](NC(=O)c3ccc(C(C)=O)cc3)C3COC(=O)[C@@H]32)OCO4)cc(OC)c1O (stereo partly specified) ... 3.01 µM (inactive)
8) c1ccc(CSc2nc3ccccc3nc2-c2cccs2)cc1 ... > 100 µM (inactive)
9) O=C1NC(=O)C2C(=O)NC(=O)C1C2(c1ccccc1)c1ccc(Cl)cc1 (stereo unspecified) ... > 100 µM (inactive)
10) C[n+]1c2ccccc2c(NC(CCC(N)=O)C(=O)O)c2ccccc21 (stereo unspecified) ... > 100 µM (inactive)
11) Clc1ccc(-c2nnc3c4nnc(-c5ccc(Cl)cc5Cl)n4c4ccccc4n23)c(Cl)c1 ... > 100 µM (inactive)
